# Test system: HT-29
# assay.summary: NCI tumour cell line growth inhibition, 48 h
The source made the active and inactive calls. Rule as the data show it: active = GI50 up to about 1.1 µM and inactive = higher.
recorded.endpoint: GI50

QUERY: Can you share its GI50? I mean this compound: COc1ccc(C(C)Nc2cc(OC)c(OC)c(OC)c2)cc1 (configuration not stated)
RESULT: 3.57 µM (inactive)

QUERY: Then what about the compound COc1ccc2[nH]c3c4c(cc(-c5ccccc5)c3c2c1)C(=O)N(c1ccccc1)C4=O ?
RESULT: 22.7 µM (inactive)

QUERY: Also, CC[n+]1[b-](C(C)(C)C)n(/N=C/C(C)(C)C)[b-](C(C)(C)C)[n+]1CC please.
RESULT: > 100 µM (inactive)

QUERY: Input CN(C)/C=C/c1c2c(nc3ccccc13)C(=O)c1cccnc1C2=O
RESULT: 2.2 µM (inactive)

* * *

# Tested on: MOLT-4
# assay.summary: NCI tumour cell line growth inhibition, 48 h
Active and inactive are the calls of the source. Cut-off read from the data, not from the text of the source: active = GI50 up to about 1.1 µM and inactive = higher.
Hi there, use one of these labels in your reply, thanks! active, inactive

Some solved entries appear below for comparison.
O=C1OCC2C1C1c3ccccc3C(O)c3ccccc3C21 (stereo unspecified) ... inactive
CC(C)Cc1ccc(C(C)/C=C2\CCC(CN3CCCC3)C2=O)cc1 (stereo unspecified) ... inactive
CCOC(=O)/C(C(=O)Nc1ccc(F)cc1)=C(/N)N1CCOCC1 ... inactive
O=C(O)C1=NN=C(C(=O)O)NN1 ... inactive
c1ccc2sc(SCN(C3CCCCC3)C3CCCCC3)nc2c1 ... inactive

Turning to the following compound.
QUERY: Which outcome was entered for the compound N#CCCN(CCC#N)c1ccc(C(Sc2ccccc2)C(NC(=O)c2cc([N+](=O)[O-])ccc2Cl)C(=O)Sc2ccccc2)cc1 (stereo unspecified) in this test?
RESULT: active

* * *

# Tested on: CAKI-1
# assay.summary: NCI tumour cell line growth inhibition, 48 h
Activity calls are given as the source filed them. Cut-off read from the data, not from the text of the source: active = GI50 up to about 1.1 µM and inactive = higher.
recorded.endpoint: GI50

QUERY: Kindly state the measured GI50 obtained for CC(C)Cc1ccc(C(C)/C=C2\CCC(CN3CCCC3)C2=O)cc1 (stereo not given) with CAKI-1.
RESULT: 13.6 µM (inactive)

* * *

# Test system: MDA-MB-435
# assay.summary: NCI tumour cell line growth inhibition, 48 h
The source made the active and inactive calls. No stated cut-off is given here; in the data, active = GI50 up to about 1.1 µM and inactive = higher.
Choose one outcome from this list and give only that: active, inactive

QUERY: Outcome? C=CCNC(=S)N/N=C1\C(=O)N(CN2CCOCC2)c2ccc([N+](=O)[O-])cc21
RESULT: inactive

QUERY: And for COC1(OC)C[C@H](C)[C@@]23O[C@]24c2cc(O)c5c(c2N[C@H]3C#C/C=C\C#C[C@]14O)C(=O)c1ccccc1C5=O ?
RESULT: active

QUERY: Next record, please: O=S(=O)(O)c1cc(S(=O)(=O)O)c2c(/N=N/c3cccc4ccccc34)c(O)ccc2c1
RESULT: inactive

* * *

# Tested on: MDA-MB-435
# assay.summary: NCI tumour cell line growth inhibition, 48 h
Active and inactive are the calls of the source. No stated cut-off is given here; in the data, active = GI50 up to about 1.1 µM and inactive = higher.
recorded.endpoint: GI50

QUERY: Tell me the measured GI50 of Cn1c(=O)c2[nH]c(C3CC(=O)CC(c4nc5c([nH]4)c(=O)n(C)c(=O)n5C)N3)nc2n(C)c1=O (centres undefined) , please.
RESULT: > 100 µM (inactive)

QUERY: And then COc1ccc(C(F)(F)F)cc1NC(=O)O/N=C(/Cl)C(C)C , what is it?
RESULT: 20.8 µM (inactive)

QUERY: Also check COc1ccc2sc(-n3nc4ccccc4c3Nc3nc4ccc(OC)cc4s3)nc2c1
RESULT: 3.24 µM (inactive)

* * *

# Tested on: CCRF-CEM
# assay.summary: NCI tumour cell line growth inhibition, 48 h
Activity calls are given as the source filed them. No stated cut-off is given here; in the data, active = GI50 up to about 1.1 µM and inactive = higher.
Return exactly one item of active, inactive

C=C(COC(C)=O)CC(/C=C(\C)CC/C=C(\C)CO)OC(C)=O (centres undefined) ... inactive
COC1CC(OC2C(C)OC(OC3C(C)OC(OC4C(C)OC(O[C@H]5CC[C@@]6(C)C(=CC[C@]7(O)[C@@H]6C[C@@H](OC(=O)/C=C(\C)C(C)C)[C@@]6(C)[C@]7(O)CC[C@@]6(O)C(C)=O)C5)CC4OC)CC3OC)CC2OC)OC(C)C1O (some centres undefined) ... inactive
OC(Cc1cnnc2ccccc12)C(Cl)(Cl)Cl (centres undefined) ... inactive

Attention now turns to another entry.
QUERY: Just curious, what result did Cc1cc(C)n(CC(Cn2nc(C)cc2C)=C(/C(Cl)=C(/Cl)Nc2ccc([N+](=O)[O-])cc2)[N+](=O)[O-])n1 get here?
RESULT: active

* * *

# Test system: SK-MEL-2
# assay.summary: NCI tumour cell line growth inhibition, 48 h
Active and inactive are the calls of the source. Rule as the data show it: active = GI50 up to about 1.1 µM and inactive = higher.
API: response.call in active, inactive

Sample answers from the record:
CC1(c2cccc3c2C2(O)C=CC4(CCC32)OCCO4)OCCO1 (stereo unspecified) ... inactive
CC(=O)N1CC(=O)NC1=S ... inactive
CCOC(=O)N1CCC2(CC1)C[C@](Sc1ccccc1)(C(C)=O)[C@H](C)O2 ... inactive
Cc1cc(C)c2c(O)cc(-c3cccc(F)c3)nc2n1 ... active

QUERY: Test call for this compound, please: O=c1cc(O)c2c(O)cc(O)cc2o1
RESULT: inactive

QUERY: Consider next the compound CC1=C(CO)C(=O)OC(C(C)C2CCC3C4CC5OC56C(O)C(N5CC5)=CC(=O)C6(C)C4CCC23C)C1 (stereo unspecified) in the same way.
RESULT: inactive

* * *

# Tested on: SNB-19
# assay.summary: NCI tumour cell line growth inhibition, 48 h
Calls of active or inactive are those of the source. Rule as the data show it: active = GI50 up to about 1.1 µM and inactive = higher.
Recorded GI50 by entry

Worked cases, answers included:
O=[N+]([O-])c1ccc(Cc2nc3cc4ccccc4cc3[nH]2)cc1C(F)(F)F ... 15.6 µM (inactive)
CCOC(=O)C1N(S(=O)(=O)c2ccc(C)cc2)CCC12C(c1ccc(OC)c(OC)c1)=Nc1ccccc12 (stereo not drawn) ... > 100 µM (inactive)
COC(=O)[C@]1(C)CCC[C@@]2(C)C1CC[C@@]13C=C(C(C)C)[C@@H](CC1=O)CC23 (stereo partly drawn) ... 25.8 µM (inactive)
O=[N+]([O-])c1cc(/C=N/C23CC4CC(CC(C4)C2)C3)ccc1Cl ... 28.6 µM (inactive)
CCCCC(=O)Nc1ccc2cc(C(=O)OC)c(Cl)nc2n1 ... 16.5 µM (inactive)

QUERY: Consider the molecule CCOC(=O)NC(=O)c1c[nH]c(=O)[nH]c1=O and give its measured GI50.
RESULT: > 100 µM (inactive)

QUERY: How about N[C@H](CCC(=O)NCP(=O)(O)O)C(=O)O ?
RESULT: > 100 µM (inactive)

QUERY: Now try OCC(O)CNc1ncnc2ccccc12 (stereo not drawn) .
RESULT: > 100 µM (inactive)

* * *

Quick list: GI50 per entry.
# Test system: NCI/ADR-RES
# assay.summary: NCI tumour cell line growth inhibition, 48 h
Calls of active or inactive are those of the source. No stated cut-off is given here; in the data, active = GI50 up to about 1.1 µM and inactive = higher.

O=[N+]([O-])c1ccc(Cc2nc3cc4ccccc4cc3[nH]2)cc1C(F)(F)F ... 11.4 µM (inactive)

QUERY: I am curious: what GI50 value has been reported for COC(=O)[C@]1(C)CCC[C@@]2(C)C1CC[C@@]13C=C(C(C)C)[C@@H](CC1=O)CC23 (stereo partly specified) ?
RESULT: 23 µM (inactive)

QUERY: And the next one, C[C@@H](CC(=O)O)OC1OC(COC(=O)C(C)(C)C)C(OC(=O)C(C)(C)C)C(OC(=O)C(C)(C)C)C1OC(=O)C(C)(C)C (stereo partly specified) ?
RESULT: > 100 µM (inactive)

QUERY: Follow-up item: O=c1cc(-c2ccccc2)oc2c1ccc1nc3ccccc3c(O)c12
RESULT: 42.4 µM (inactive)

QUERY: For CCOC(=O)c1nc2cc(F)cc(F)c2[nH]c1=O then?
RESULT: > 100 µM (inactive)

QUERY: Okay, and O=C1c2ccccc2C(=O)c2c(NCC3CO3)ccc(NCC3CO3)c21 (stereo unspecified) ?
RESULT: 1.6 µM (inactive)

* * *

# System: SF-539
# assay.summary: NCI tumour cell line growth inhibition, 48 h
Activity calls are given as the source filed them. No stated cut-off is given here; in the data, active = GI50 up to about 1.1 µM and inactive = higher. Non-standard residues stand in square brackets, D forms with d. Residues, ends and D or L forms follow the SMILES beside them. ξ: configuration not given here. *: point of attachment. dThr(3ξ) = CC(O)[C@@H](N)C(=O)O; dNMeL = CN[C@H](CC(C)C)C(=O)O; OBn = c1ccc(CO*)cc1; ξLac = CC(O)C(=O)O
Hello, when you answer, please use one of the following outcomes: active, inactive

Please review the following examples before continuing.
CCN(CC)C(=S)SCC(=O)Nc1nc2c(s1)CCCC2 ... inactive
CCOP(=O)(OCC)C(F)(F)CC1CCCCC1 ... inactive
CCN(CC)CCN(C)CC(C)(C)C(=O)/C=C/c1ccccc1 ... inactive

QUERY: GET /call?item= O=S(=O)(O)c1cc(S(=O)(=O)O)c2c(/N=N/c3cccc4ccccc34)c(O)ccc2c1 returns the recorded outcome of this test.
RESULT: inactive

QUERY: Another compound to check: CC(=O)OC(C)[C@@H](NC(=O)[C@@H](CC(C)C)N(C)C(=O)[C@@H]1CCCN1C(=O)C(C)O)C(=O)OCc1ccccc1 (stereo not given in full) (H-[ξLac]P[dNMeL][dThr(3ξ)](Ac)-OBn)
RESULT: inactive

QUERY: Would you mind doing S=c1[nH]c2ccc(Br)cc2c(=S)s1 as well?
RESULT: inactive

QUERY: Another compound to check: O=C(NC(CS)C(=O)O)c1c2ccccc2nc2ccccc12 (stereo not given)
RESULT: inactive

QUERY: // query: O=C1C(Br)=CC2(C=C1Br)CCNC1=C2C(=O)c2ncccc2C1=O
RESULT: active

QUERY: Same thing, different compound: O=C(/C=C/C(=O)N1CCCC1)N1CCCC1
RESULT: inactive

QUERY: Moving on to COC(=O)C1(C(=O)OC)CC2=C(S(=O)(=O)c3ccccc3)C[C@@H](C#N)[C@H]2C1
RESULT: inactive
